# Experiment description: Partition coefficient of compound was measured in heptane/water system
# Condition summary: octanol/water
Endpoint: Log Phep
Give bare numbers.

Data request: Which Log Phep value is on record for `NC(=O)c1ccc(F)cc1` ?
Data returned: -2.34

Data request: Quick one: Log Phep of `NC(=O)c1ccccc1F` ?
Data returned: -1.47

Working through the 3 molecules below one at a time, give Log Phep for each.
1. CC(=O)Nc1ccc(F)cc1
2. O=[N+]([O-])c1ccccc1O [NITROPHENOLATE]
3. CC(=O)Nc1ccccc1F

Data returned:
1: -1.57; 2: 1.04; 3: -0.69

Data request: Given the entry `O=[N+]([O-])c1ccc(O)cc1` , report its measured Log Phep.
Data returned: -2.11

====

# Experiment description: physchem
# Condition summary: octanol/water
# Description: Partition coefficient (logP)
Could you mark each record Y if its logP falls strictly under 2, and N if it equals or exceeds it?

Data request: State whether 2 exceeds logP recorded for O=[N+]([O-])c1ccccc1O [NITROPHENOLATE] .
Data returned: Y

Data request: # strict comparison: is reported logP < 2? input = `CC(=O)Nc1ccc(F)cc1`
Data returned: Y

Data request: Find out if reported logP for `CC(=O)Nc1ccccc1F` is less than 2
Data returned: Y

Data request: Just wondering, is logP of `NC(=O)c1ccccc1F` below 2?
Data returned: Y

Data request: Just wondering, is logP of `O=C1N[C@H](Cc2ccc(O)cc2)C(=O)N[C@H]1Cc1c[nH]c2ccccc12` below 2?
Data returned: N

Others:
Data request: Does the reported logP of `O=C1N[C@@H](Cc2ccccc2)C(=O)N[C@H]1Cc1ccccc1` stay below 2?
Data returned: N

Data request: Hello, I'm reviewing records and need to know if logP of `NC(=O)c1ccc(F)cc1` is below 2. Could you check?
Data returned: Y

Data request: Does the reported logP of the following compound sit strictly below 2? `O=[N+]([O-])c1ccc(O)cc1`
Data returned: Y

====

# Experiment description: physchem
# Condition summary: octanol/water
# Description: Partition coefficient (logP)
Endpoint: logP
Numbers only.

In the examples that follow, each entry is paired with its recorded logP.
Data request: What does the data say about its logP? Entry: `O=C1N[C@@H](Cc2ccccc2)C(=O)N[C@H]1Cc1ccccc1`
Data returned: 1.59

Data request: Which logP reading was recorded for the compound `NC(=O)c1ccccc1F` ?
Data returned: 0.64

Data request: # lookup: logP of `O=C1N[C@H](Cc2ccc(O)cc2)C(=O)N[C@H]1Cc1c[nH]c2ccccc12`
Data returned: 1.05

Data request: Recorded logP of `NC(=O)c1ccc(F)cc1` , please.
Data returned: 0.96

Data request: Could you tell me which logP is on file for `CC(=O)Nc1ccc(F)cc1` ?
Data returned: 1.47

Data request: Find the recorded logP belonging to `CC(=O)Nc1ccccc1F` and report it.
Data returned: 0.96

Could I get logP for every one of these entries?
1. O=[N+]([O-])c1ccccc1O [NITROPHENOLATE]
2. O=[N+]([O-])c1ccc(O)cc1

Data returned:
1: 1.68; 2: 1.77

====

# Experiment description: Partition coefficient of compound was measured in heptane/water system
# Condition summary: octanol/water
Answer each item with its documented Log Phep.
Give bare numbers.

Illustrative cases are given below, each with its answer.
Data request: Reported Log Phep for NC(=O)c1ccccc1 [BENZAMIDE] : what is it?
Data returned: -2.45

Data request: // returns reported Log Phep for input CC(=O)Nc1ccccc1 [ACETANILIDE]
Data returned: -1.54

# ---- query molecule ----
Data request: # query: Log Phep of entry `Oc1ccccc1`
Data returned: -0.82
